# tgt: T1, human 14-3-3 isoform θ (recombinant, MBP tag removed) (human, UniProt P27348 1-245)
# T1 construct: 14-3-3 theta, human; Expressed from pMAL2CX plasmids; also called 14-3-3θ; source: E. coli BL21DE3, purified (maltose-agarose, Factor Xa, anion exchange)
# T1 sequence (looked up): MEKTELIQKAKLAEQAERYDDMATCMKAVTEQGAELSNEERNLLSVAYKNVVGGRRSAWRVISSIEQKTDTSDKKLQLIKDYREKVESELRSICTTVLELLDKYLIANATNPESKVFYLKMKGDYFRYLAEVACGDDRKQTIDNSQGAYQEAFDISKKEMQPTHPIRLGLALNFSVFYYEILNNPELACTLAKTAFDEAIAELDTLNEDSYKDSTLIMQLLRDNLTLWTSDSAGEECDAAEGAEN
# run_description: fluorescence polarisation; direct binding; dilution series of 14-3-3 isoform (at least 5 μM down to picomolar) mixed with 1 nM fluorescein-labelled peptide; 20 mM MOPS pH 7, 150 mM NaCl, 0.005% CHAPS; 384-well plates
# applied_conditions: both partners purified
pKd: −log10 of the molar value. Square brackets hold non-standard residues; d marks the D form. Ends that are not written are not given here. fluorescein = N-terminal fluorescein label; pS = N[C@@H](COP(=O)(O)O)C(=O)O
endpoint_name: pKd

(I) fluorescein-RCSPNLRRHSN[pS]LGPIFDH (LRRK2-derived peptide with the possible pathogenic mutation Q930R, phosphorylated at S935; source: synthetic peptide (Peps4LS GmbH)) [Q930R/pS935]
(II) fluorescein-KKSN[pS]ISVGEFYRDAVLQRCSPNLQRHSN[pS]LGPIF (LRRK2-derived 35-mer covering S910 and S935, phosphorylated at both; source: synthetic peptide (Peps4LS GmbH)) [pS910/pS935]
Challenge: Of the two listed items, which has the higher pKd? First: I Second: II When you have decided, please share the label of that item.
Response given: II
(II: 8.02, I: 7.14)
